test: Cytotoxicity against […]-activated human PBMC on day 7 by MTT assay; type: cell-based
Entries annotated with measured CC50 at 7 day

Below: 3 compounds and their reported CC50 at 7 day.
>>> print(df.to_string())
                                   compound  observed_value
0    Nc1ncnc2c1ncn2CCOCP(=O)(O)O [ADEFOVIR]         > 30 µM
1  Nc1ncnc2c1ncn2CCOCP(=O)([O-])[S-].[Na+].[Na+] (centres undefined)         > 30 µM
2  C[C@H](Cn1cnc2c(N)ncnc21)OCP(=O)(O)O [TENOFOVIR ANHYDROUS]        > 100 µM

Quick one: CC50 at 7 day of C[C@H](Cn1cnc2c(N)ncnc21)OCP(=O)([O-])[S-].[Na+].[Na+] (some centres undefined) ?
> 100 µM
